target: SfruOBP31 (Spodoptera frugiperda, UniProt A0A2H1W9W7); assay: fluorescence competitive binding assay with the probe 1-NPN; settings: competing ligand 2–20 µM, 2.0 µM 1-NPN, 2.0 µM protein; Ki = [IC50]/(1 + [1-NPN]/K1-NPN); Ki < 20 µM recognized as binding
Sequence (A0A2H1W9W7 entry or part of it): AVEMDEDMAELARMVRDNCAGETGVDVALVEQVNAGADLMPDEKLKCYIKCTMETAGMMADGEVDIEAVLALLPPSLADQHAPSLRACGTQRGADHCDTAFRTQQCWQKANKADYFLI
Parameter pKi: see the listing below.
// pKi is dimensionless: -log10 of concentration (M)

Short answer please: pKi, SfruOBP31 (Spodoptera frugiperda, UniProt A0A2H1W9W7), entry CNC(=O)c1cc(Cl)cc(C)c1NC(=O)c1cc(Br)nn1-c1ncccc1Cl [chlorantraniliprole, reference compound]
4.65

Notebook entry, SfruOBP31 (Spodoptera frugiperda, UniProt A0A2H1W9W7) assay: pKi of C=CC(C)(O)CCC=C(C)C (stereo not shown) = ?
5.39

What is its pKi for SfruOBP31 (Spodoptera frugiperda, UniProt A0A2H1W9W7)? Entry: O=C(NC(=O)c1c(F)cccc1F)Nc1cc(Cl)c(OC(F)(F)C(F)C(F)(F)F)cc1Cl (stereo not shown) [lufenuron, reference compound]
4.43

What is its pKi for SfruOBP31 (Spodoptera frugiperda, UniProt A0A2H1W9W7)? Entry: CC1(C)[C@H](C(=O)O[C@H](C#N)c2cccc(Oc3ccccc3)c2)[C@@H]1/C=C(\Cl)C(F)(F)F (racemic) [lambda-cyhalothrin, reference compound]
5.56

---

Molecular target: SfruOBP31 (Spodoptera frugiperda, UniProt A0A2H1W9W7)
Test: fluorescence competitive binding assay with the probe 1-NPN
Details: competing ligand 2–20 µM, 2.0 µM 1-NPN, 2.0 µM protein; Ki = [IC50]/(1 + [1-NPN]/K1-NPN); Ki < 20 µM recognized as binding; read-out: Ki
Procedure: To investigate the ligand binding ability of SfruOBP31, we used a fluorescence competitive binding assay using the fluorescent probe N-phenyl-1-naphthylamine (1-NPN). Binding experiments were performed on a microplate reader using a Greiner 96 Black Flat Bottom. […] The binding constant of the protein to 1-NPN was analyzed by assessing the continuous change of fluorescence value. […] The dissociation constants (K1-NPN) of SfruOBP31 were calculated using Graphpad Prism 8 software. […]
Exam item: assign yes to entries whose Ki is below 6 µM and no to entries at or above 6 µM. Note that a value of exactly 6 µM receives no.

Please check: Ki for CC/C=C\CCOC(C)=O [cis-3-hexenyl acetate] , strictly under 6 µM or not?
no

API: query returns whether the molecule falls strictly under 6 µM in Ki. Query: CCCCCCCCCO [1-nonanol]
no

Ki strictly < 6 µM for this molecule? CCCCCCCCCC=O [decanal]
no

Bench note: check whether CCCC/C=C\CCCCCCCCOC(C)=O [(Z)-9-tetradecenyl acetate] shows Ki below 6 µM
yes

For the next question, use this molecule.
Is it true that Ki reported for CCCC/C=C\CCCCCCCCCCOC(C)=O [(Z)-11-hexadecenyl acetate] is less than 6 µM?
yes

---

target: SfruOBP31 (Spodoptera frugiperda, UniProt A0A2H1W9W7); test: fluorescence competitive binding assay with the probe 1-NPN; conditions: competitive binding with 1-NPN; threshold Ki < 20 µM recognized as binding
readout_label: binding of SfruOBP31 to the ligand (in words)

// lookup binding of SfruOBP31 to the ligand (in words) for CCCC/C=C\CCCCCCCCCCOC(C)=O [(Z)-11-hexadecenyl acetate]
selectively binds

Find the recorded binding of SfruOBP31 to the ligand (in words) belonging to CNC(=O)c1cc(Cl)cc(C)c1NC(=O)c1cc(Br)nn1-c1ncccc1Cl [chlorantraniliprole, reference compound] and report it.
lack of binding

Look up binding of SfruOBP31 to the ligand (in words) for this compound: CCCC/C=C\CCCCCCCCOC(C)=O [(Z)-9-tetradecenyl acetate]
selectively binds

Name the reported binding of SfruOBP31 to the ligand (in words) value associated with the compound O=C(NC(=O)c1c(F)cccc1F)Nc1cc(Cl)c(OC(F)(F)C(F)C(F)(F)F)cc1Cl (stereo not shown) [lufenuron, reference compound]
lack of binding
